- TARGET_DESC: Cytochrome P450 3A4 (Homo sapiens) (UniProt P08684)
- Sequence (P08684 whole entry, looked up): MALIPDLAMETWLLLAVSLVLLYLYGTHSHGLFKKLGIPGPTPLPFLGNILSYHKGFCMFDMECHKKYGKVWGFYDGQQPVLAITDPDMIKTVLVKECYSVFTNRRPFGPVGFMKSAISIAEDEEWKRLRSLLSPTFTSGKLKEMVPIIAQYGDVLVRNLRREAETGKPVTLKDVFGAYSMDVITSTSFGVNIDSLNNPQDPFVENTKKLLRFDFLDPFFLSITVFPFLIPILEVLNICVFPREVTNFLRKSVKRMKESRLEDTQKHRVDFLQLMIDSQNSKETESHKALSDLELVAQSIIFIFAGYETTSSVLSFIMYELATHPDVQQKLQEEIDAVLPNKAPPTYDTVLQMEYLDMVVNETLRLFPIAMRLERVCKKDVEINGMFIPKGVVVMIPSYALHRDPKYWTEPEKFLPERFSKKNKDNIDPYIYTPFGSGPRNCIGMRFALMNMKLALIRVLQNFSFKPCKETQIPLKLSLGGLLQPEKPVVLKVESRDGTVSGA
- ASSAY_OVERVIEW: Cytochrome panel assay with activity outcomes
- PARTICULARS: recombinant CYP, pro-luciferin dealkylation, luminescence, p450-cyp3a4; series mostly up to 57.1 µM
About 5,100 (32%) of roughly 16,000 compounds were called active. Another 25% or so got no clear call; they are omitted. Calls come from the whole dose curve; as a rule, active = well fitted curve in the direction sought with a large enough effect; inconclusive = small, poorly fitted or top-dose-only effect, or effect the other way; inactive = no such curve, though single readings can be large or run the other way. The list shows a part of the results.
Outcome codes: active, inactive

MOLECULE: CCOc1nc(N=C(N)N)nc2c(C)cccc12
ASSIGNED_LABEL: inactive
--
MOLECULE: O=C(Nc1nc2ccccc2n1Cc1ccccc1)c1ccc(COc2ccccc2[N+](=O)[O-])o1
ASSIGNED_LABEL: active
--
MOLECULE: Cc1ccc(-n2nnnc2Sc2nc([N+](=O)[O-])nn2C)cc1C
ASSIGNED_LABEL: active
--
MOLECULE: CCOC(=O)c1c(C)nc2c(c1-c1ccccc1)C(=O)CC(C)(C)C2
ASSIGNED_LABEL: inactive
--
MOLECULE: CC(=O)N(/N=C/c1cccc(C)c1)c1nc(-c2ccc(Br)cc2)cs1
ASSIGNED_LABEL: inactive
--
MOLECULE: COC(=O)[C@@]1(Cc2ccccc2)[C@H]2c3cc(C(=O)N4CCCC4)n(Cc4ccc(C(F)(F)F)nc4)c3C[C@H]2CN1C(=O)c1ccccc1
ASSIGNED_LABEL: active
--
MOLECULE: COC(=O)[C@@]1(Cc2ccc(OC)cc2)[C@H]2c3cc(C(=O)N4CCCC4)n(Cc4ccc(C(F)(F)F)nc4)c3C[C@H]2CN1C(=O)c1ccccc1
ASSIGNED_LABEL: active
--
MOLECULE: CCn1nccc1C(=O)Nc1nc2ccccc2n1CCN1CCCCC1
ASSIGNED_LABEL: inactive
--
MOLECULE: CCn1c(SCC(=O)N2CCOCC2)nc2oc3c(Cl)cc(Cl)cc3c(=O)c2c1=O
ASSIGNED_LABEL: active
--
MOLECULE: CC(NC(=O)Cn1cnc([N+](=O)[O-])n1)c1ccccc1 (stereo not given)
ASSIGNED_LABEL: inactive

###

- TARGET_DESC: Cytochrome P450 3A4 (Homo sapiens)
- ASSAY_OVERVIEW: Cytochrome panel assay with activity outcomes
- PARTICULARS: recombinant CYP, pro-luciferin dealkylation, luminescence, p450-cyp3a4; series mostly up to 57.1 µM
Among all 16,000 compounds or so, about 5,100 (32%) were called active. Inconclusive results (about 25%) are left out. Some of the results follow.

COMPOUND: COc1ccc(CNc2ncnc3ccc(-c4cccc(NS(C)(=O)=O)c4)cc23)c(OC)c1
TARGET_DESC: Cytochrome P450 3A4 (Homo sapiens)
AC50: 2 µM (active)

COMPOUND: O=C(CS(=O)c1cccc(Cl)c1)Nc1ccccc1Cl (stereo unspecified)
TARGET_DESC: Cytochrome P450 3A4 (Homo sapiens)
AC50: 14.1 µM (active)

COMPOUND: O=C(CS(=O)(=O)c1cccc(Cl)c1)Nc1ccccc1Cl
TARGET_DESC: Cytochrome P450 3A4 (Homo sapiens)
AC50: 6.31 µM (active)

COMPOUND: Cc1nn(Cc2c(F)c(F)c(F)c(F)c2F)c(C)c1NC(=O)c1cccc(COc2ccccc2Cl)c1
TARGET_DESC: Cytochrome P450 3A4 (Homo sapiens)
AC50: 3.98 µM (active)

COMPOUND: COc1ccc(-c2cnnc(CCCn3ccnc3-c3ccccc3)n2)cc1
TARGET_DESC: Cytochrome P450 3A4 (Homo sapiens)
AC50: 6.31 µM (active)

###

activity, negative = inhibition overview
- TARGET_DESC: Cytochrome P450 3A4 (Homo sapiens) (UniProt P08684)
- ASSAY_OVERVIEW: Cytochrome panel assay with activity outcomes; for activity, negative = inhibition: % is set by controls: 0 for no effect and ±100 for the full control effect
- PARTICULARS: recombinant CYP, pro-luciferin dealkylation, luminescence, p450-cyp3a4; series mostly up to 57.1 µM
In all, about 16,000 compounds went through this assay and about 5,100 (32%) were called active. Another 25% or so got no clear call; they are omitted. Some of the results follow.

COMPOUND: CC1(C)O[C@H]2[C@@H](O1)[C@@H](On1nnc3ccc(Cl)cc31)O[C@@H]2[C@@H]1COC(C)(C)O1
activity, negative = inhibition: -24.7% [at 11.4 µM] (inactive)
//
COMPOUND: O=C(O)Cc1c(O)ccc2ccccc12
activity, negative = inhibition: -10.5% [at 11.4 µM] (inactive)
//
COMPOUND: COC(=O)c1cc(=O)[nH]c(=O)[nH]1
activity, negative = inhibition: 0.116% [at 11.4 µM] (inactive)
//
COMPOUND: O=C(O)[C@@H](O)[C@@H](O)[C@@H](O)[C@@H](O)c1nc2ccccc2s1
activity, negative = inhibition: -23.6% [at 11.4 µM] (inactive)
//
COMPOUND: CC1(C)OC(=O)C(=CNCC(O)c2ccccc2)C(=O)O1 (configuration not stated)
activity, negative = inhibition: 20.4% [at 11.4 µM] (inactive)
//
COMPOUND: N=c1sccn1CC(=O)Nc1cccc(Oc2ccccc2)c1
activity, negative = inhibition: -7.61% [at 11.4 µM] (inactive)
//
COMPOUND: Cc1ccc(CSc2nnc3c(n2)OC2(Nc4ccccc4-3)C(=O)Nc3ccc(F)cc32)cc1 (configuration not stated)
activity, negative = inhibition: -12.4% [at 2.29 µM] (inactive)
//
COMPOUND: CCOC(=O)C1C(=O)NC(C)C1c1ccccc1 (configuration not stated)
activity, negative = inhibition: 1.56% [at 2.29 µM] (inactive)
//
COMPOUND: O=C(O)C[n+]1ccccc1
activity, negative = inhibition: -14.8% [at 11.4 µM] (inactive)
//
COMPOUND: O=C(O)[C@@H](Cc1c[nH]c2ccccc12)C(=O)NO
activity, negative = inhibition: -15.9% [at 11.4 µM] (inactive)
//
COMPOUND: Nc1nc(-c2ccc3ccccc3c2)cc(-c2cc(-c3ccc4ccccc4c3)nc(N)n2)n1
activity, negative = inhibition: -3.3% [at 11.4 µM] (inactive)
//
COMPOUND: Cc1ccc(S(=O)(=O)N[C@H]2COC(=O)C/C=C\[C@@H](C)[C@H](NS(=O)(=O)c3ccc(C)cc3)COC(=O)[C@H](C)NC(=O)C/C=C\[C@H]2C)cc1
activity, negative = inhibition: -35.2% [at 11.4 µM] (inactive)
//
COMPOUND: Cc1[nH]c2ccccc2c1-c1cc(-c2cc(-c3c(C)[nH]c4ccccc34)on2)no1
activity, negative = inhibition: -5.38% [at 11.4 µM] (inactive)
//
COMPOUND: CC(=O)Nc1nonc1NC(=O)c1ccc(C(C)(C)C)cc1
activity, negative = inhibition: -6.73% [at 11.4 µM] (inactive)
//
COMPOUND: CO[C@H]1COC(=O)C/C=C\[C@@H](C)COC(=O)[C@H]2CCCN2C(=O)C/C=C\[C@H]1C
activity, negative = inhibition: -22.4% [at 11.4 µM] (inactive)
//
COMPOUND: CN(C)Cc1cc(Cl)c(O)c(CN(C)C)c1
activity, negative = inhibition: -5.94% [at 11.4 µM] (inactive)
//
COMPOUND: O=C(NC(=S)Nc1cccc(Cl)c1N1CCCCC1)c1cccs1
activity, negative = inhibition: -1.51% [at 2.29 µM] (inactive)
//
COMPOUND: Nc1ccc(S(=O)(=O)NCc2nccs2)cc1
activity, negative = inhibition: -10.4% [at 11.4 µM] (inactive)
//
COMPOUND: O=C1CC[C@](CCc2nc3ccccc3[nH]2)(c2ccccc2)C(=O)N1
activity, negative = inhibition: -26.9% [at 11.4 µM] (inactive)
//
COMPOUND: COc1cc2ccccc2cc1C(=O)Nc1ccc(S(=O)(=O)Nc2cc(C)on2)cc1
activity, negative = inhibition: 6.01% [at 11.4 µM] (inactive)
//
COMPOUND: O=c1[nH]c(=S)c2[nH]c(=O)n(-c3ccccc3)c2[nH]1
activity, negative = inhibition: -9.23% [at 11.4 µM] (inactive)
//
COMPOUND: CCCC1C(=O)N(c2ccccc2)C1c1ccccc1 (configuration not stated)
activity, negative = inhibition: 1.96% [at 2.29 µM] (inactive)

###

- TARGET_DESC: Cytochrome P450 3A4 (Homo sapiens)
- ASSAY_OVERVIEW: Cytochrome panel assay with activity outcomes
- PARTICULARS: recombinant CYP, pro-luciferin dealkylation, luminescence, p450-cyp3a4; series mostly up to 57.1 µM
Out of some 16,000 compounds screened, about 5,100 (32%) were called active. Inconclusive results (about 25%) are left out. The call rests on the fitted dose curve; in most records, active means well fitted curve in the direction sought with a large enough effect; inconclusive means small, poorly fitted or top-dose-only effect, or effect the other way; inactive means no such curve, though single readings can be large or run the other way. Some of the results follow.
Outcome codes: True for active, False for inactive

SMILES_DATA: Cc1cc(C)cc(N(CC(=O)NCCSc2ccccn2)S(=O)(=O)c2ccccc2)c1
ASSIGNED_LABEL: True

SMILES_DATA: COc1ccc2c(Cl)c(-c3nnco3)sc2c1
ASSIGNED_LABEL: True

SMILES_DATA: O=C(CN(c1ccccc1)S(=O)(=O)c1ccccc1)NCCSCc1ccco1
ASSIGNED_LABEL: True

SMILES_DATA: COC(=O)CN(c1ccccn1)S(=O)(=O)c1ccccc1
ASSIGNED_LABEL: False

SMILES_DATA: CCC(=O)Nc1nnc(C(C)(C)C)s1
ASSIGNED_LABEL: False

SMILES_DATA: COc1ccc2nc(/N=C\N(C)C)sc2c1
ASSIGNED_LABEL: False
